Data credit: ChEMBL document CHEMBL4477234

Target: UniProt Q9UBL9
Sequence (Q9UBL9 whole entry): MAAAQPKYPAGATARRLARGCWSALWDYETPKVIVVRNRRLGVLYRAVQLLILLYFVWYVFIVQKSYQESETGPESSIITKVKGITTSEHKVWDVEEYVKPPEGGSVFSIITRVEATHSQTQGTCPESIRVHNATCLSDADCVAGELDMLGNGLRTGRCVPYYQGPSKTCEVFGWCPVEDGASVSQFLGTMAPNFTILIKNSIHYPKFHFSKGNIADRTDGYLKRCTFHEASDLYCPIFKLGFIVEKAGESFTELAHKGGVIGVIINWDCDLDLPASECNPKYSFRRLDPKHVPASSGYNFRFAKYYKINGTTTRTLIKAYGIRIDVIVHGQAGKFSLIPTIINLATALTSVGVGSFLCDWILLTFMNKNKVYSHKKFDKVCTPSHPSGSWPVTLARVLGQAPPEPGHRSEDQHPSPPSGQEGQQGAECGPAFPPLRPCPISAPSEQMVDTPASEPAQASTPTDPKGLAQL
Assay: Antagonist activity at human P2X2 receptor expressed in human 1321N1 cells assessed as inhibition of ATP-induced calcium influx at 1 uM preincubated for 30 mins prior to ATP-stimulation by calcium influx assay
Format: cell-based
# inhibition values compiled below
# unit: % | format: bare number

Sample records with inhibition:
>  <compound>
CS(=O)(=O)c1ccc(C(=O)N2CCC(c3nc4cc(OS(=O)(=O)c5cccc6cnccc56)ccc4[nH]3)CC2)cc1

>  <inhibition [%]>
7

$$$$
>  <compound>
CN(C)c1ccc(C(=O)N2CCC(n3cncc3-c3ccc(OS(=O)(=O)c4cccc5cnccc45)cc3)CC2)cc1

>  <inhibition [%]>
11

$$$$
>  <compound>
O=C1NC(=O)N(C2CCN(C(=O)c3ccc(Cl)c(C(F)(F)F)c3)CC2)C1Cc1ccc(OS(=O)(=O)c2cccc3cnccc23)cc1 (stereo not given)

>  <inhibition [%]>
5

$$$$
>  <compound>
CN(C)c1ccc(C(=O)N2CCC(n3cncc3-c3ccc(OS(=O)(=O)c4cccc(C(=O)NC5CC5)c4)cc3)CC2)cc1

>  <inhibition [%]>
7

$$$$

Now examine the next entry.
Which inhibition is reported for this compound? `CN(C)c1ccc(C(=O)N2CCN(c3cc(=O)[nH]c(=O)n3Cc3ccc(OS(=O)(=O)c4cccc5cnccc45)cc3)CC2)cc1`
2

* * *

Target: P2X purinoceptor 7 (Homo sapiens, UniProt Q99572)
Sequence (Q99572 whole entry): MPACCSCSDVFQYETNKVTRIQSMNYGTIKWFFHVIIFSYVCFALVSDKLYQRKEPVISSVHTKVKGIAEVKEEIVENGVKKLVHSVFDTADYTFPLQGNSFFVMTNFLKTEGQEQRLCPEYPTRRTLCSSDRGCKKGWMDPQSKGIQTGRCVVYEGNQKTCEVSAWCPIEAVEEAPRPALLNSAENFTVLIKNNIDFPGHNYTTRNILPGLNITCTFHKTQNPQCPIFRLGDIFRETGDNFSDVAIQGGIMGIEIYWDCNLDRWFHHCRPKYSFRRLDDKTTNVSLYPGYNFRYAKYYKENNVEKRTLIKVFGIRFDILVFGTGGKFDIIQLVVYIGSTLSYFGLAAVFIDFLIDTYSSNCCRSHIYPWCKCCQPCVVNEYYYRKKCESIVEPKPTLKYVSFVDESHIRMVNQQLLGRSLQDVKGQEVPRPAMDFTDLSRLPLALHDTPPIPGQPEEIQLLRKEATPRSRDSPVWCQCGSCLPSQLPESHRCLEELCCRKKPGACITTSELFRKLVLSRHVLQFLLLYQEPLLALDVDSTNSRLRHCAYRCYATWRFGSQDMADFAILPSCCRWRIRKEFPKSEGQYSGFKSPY
Experiment: Antagonist activity at human P2X7 receptor expressed in HEK293 cells assessed as inhibition of BzATP-induced EtBr uptake measured after 2 hrs by fluorescence analysis
Type: cell-based
IC50 under 0.1 µM gets Satisfied, anything at or over 0.1 µM gets Not satisfied.

Reference set, count: 2
>  <structure string>
N#Cc1cccc(S(=O)(=O)Oc2ccc(-c3cncn3C3CCN(C(=O)c4ccc([N+](=O)[O-])cc4)CC3)cc2)c1

>  <classification>
Satisfied

$$$$
>  <structure string>
O=C(c1ccc([N+](=O)[O-])cc1)N1CCN(c2cc(=O)[nH]c(=O)n2Cc2ccc(OS(=O)(=O)c3cccc4cnccc34)cc2)CC1

>  <classification>
Satisfied

$$$$

Bench note: check whether `O=C(c1ccc(Cl)c(C(F)(F)F)c1)N1CCC(n2cncc2-c2ccc(OS(=O)(=O)c3cccs3)cc2)CC1` shows IC50 below 0.1 µM
Not satisfied

Is 0.1 µM strictly greater than the molecule's reported IC50? molecule: `COc1ccc(C(=O)N2CCC(n3cncc3-c3ccc(OS(=O)(=O)c4cccc(C(=O)NC5CC5)c4)cc3)CC2)cc1`
Not satisfied

Field: below-cutoff. Rule: recorded IC50 strictly less than 0.1 µM. Subject: `COc1ccc(C(=O)N2CCC(n3cncc3-c3ccc(OS(=O)(=O)c4cccc5cnccc45)cc3)CC2)cc1`
Satisfied

Given the entry `CC(C)c1ccc(C(=O)N2CCC(n3cncc3-c3ccc(OS(=O)(=O)c4cccc5cnccc45)cc3)CC2)cc1` , would its reported IC50 be below 0.1 µM?
Satisfied

Lab note: confirm whether the reported IC50 for this molecule is below 0.1 µM, equality not counting. molecule: `CS(=O)(=O)c1ccc(C(=O)N2CCC(n3cncc3-c3ccc(OS(=O)(=O)c4cccc(C#N)c4)cc3)CC2)cc1`
Not satisfied
